- assaySystem: NJAK2 (N-terminal portion of JAK2) (Homo sapiens, UniProt O60674)
- Sequence (O60674 1-294 S277G): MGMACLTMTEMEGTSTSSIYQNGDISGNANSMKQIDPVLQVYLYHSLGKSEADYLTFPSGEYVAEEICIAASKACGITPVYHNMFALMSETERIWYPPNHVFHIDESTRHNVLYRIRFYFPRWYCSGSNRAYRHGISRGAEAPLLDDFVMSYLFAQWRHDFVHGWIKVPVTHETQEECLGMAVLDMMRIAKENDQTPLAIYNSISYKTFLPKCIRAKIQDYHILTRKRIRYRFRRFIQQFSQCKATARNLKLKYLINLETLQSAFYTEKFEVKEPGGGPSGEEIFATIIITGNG
- assayComment: SPA: binding of 3H-NJAK2 (N-terminal JAK2) to βc peptides on streptavidin-coated beads
- measurementParameters: less than saturating peptide, 40 pmole per reaction, FIG. 12B
propertyMeasured: activity profile in binding 3H-NJAK2 (signal)

Lookup: State its activity profile in binding 3H-NJAK2 (signal) for this sequence: EKIPNPSKSHLFQNGSAELWP [peptide 1, βc peptide, N-terminal truncation]
Found: gave no signal

Lookup: State its activity profile in binding 3H-NJAK2 (signal) for this sequence: RKWEEKIPNPSKSHLFQNGSAELWP [peptide 2, βc peptide, N-terminal truncation]
Found: gave no signal

----------
- assaySystem: JAK2 (Homo sapiens)
- Sequence (O60674 3-1132): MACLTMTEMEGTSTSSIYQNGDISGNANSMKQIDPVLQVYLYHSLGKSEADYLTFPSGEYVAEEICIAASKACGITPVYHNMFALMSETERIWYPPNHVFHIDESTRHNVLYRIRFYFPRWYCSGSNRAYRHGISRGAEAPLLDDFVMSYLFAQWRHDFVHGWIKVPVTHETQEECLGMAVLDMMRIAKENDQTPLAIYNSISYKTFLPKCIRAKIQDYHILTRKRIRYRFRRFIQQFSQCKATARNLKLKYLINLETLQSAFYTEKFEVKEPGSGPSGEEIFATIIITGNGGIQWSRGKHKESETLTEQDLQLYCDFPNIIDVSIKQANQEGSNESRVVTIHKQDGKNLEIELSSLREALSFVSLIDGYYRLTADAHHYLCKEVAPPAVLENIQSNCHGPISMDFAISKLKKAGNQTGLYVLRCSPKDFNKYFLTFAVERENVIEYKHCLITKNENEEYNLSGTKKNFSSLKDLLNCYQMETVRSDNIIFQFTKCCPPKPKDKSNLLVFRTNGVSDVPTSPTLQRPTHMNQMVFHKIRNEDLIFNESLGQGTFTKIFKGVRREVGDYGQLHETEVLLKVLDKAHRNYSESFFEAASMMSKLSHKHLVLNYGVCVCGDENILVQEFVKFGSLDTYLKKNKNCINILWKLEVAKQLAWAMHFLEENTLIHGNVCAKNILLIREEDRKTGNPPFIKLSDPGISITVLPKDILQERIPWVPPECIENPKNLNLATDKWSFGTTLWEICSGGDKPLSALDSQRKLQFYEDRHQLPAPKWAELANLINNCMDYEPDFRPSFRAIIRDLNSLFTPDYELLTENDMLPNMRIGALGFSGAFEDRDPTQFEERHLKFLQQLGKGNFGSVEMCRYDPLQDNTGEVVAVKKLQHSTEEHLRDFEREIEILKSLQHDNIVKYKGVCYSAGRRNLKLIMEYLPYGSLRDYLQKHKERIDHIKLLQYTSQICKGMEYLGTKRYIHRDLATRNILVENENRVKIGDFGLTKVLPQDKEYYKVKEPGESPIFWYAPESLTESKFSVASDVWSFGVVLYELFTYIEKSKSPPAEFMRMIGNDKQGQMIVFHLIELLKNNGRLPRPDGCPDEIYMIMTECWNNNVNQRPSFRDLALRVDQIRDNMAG
- assayComment: SPA: binding of 3H-JAK2 to βc peptides on streptavidin-coated beads
- Design: NJAK2 = N-terminal 294 residues
- measurementParameters: less than saturating peptide, 40 pmole per reaction; 3H-JAK2; FIG. 12A
propertyMeasured: activity profile in binding 3H-JAK2 (signal)

Lookup: State its activity profile in binding 3H-JAK2 (signal) for this sequence: EKIPNPSKSHLFQNGSAELWP [peptide 1, βc peptide, N-terminal truncation]
Found: gave no signal

Lookup: State its activity profile in binding 3H-JAK2 (signal) for this sequence: RKWEEKIPNPSKSHLFQNGSAELWP [peptide 2, βc peptide, N-terminal truncation]
Found: gave no signal
